Provide the recorded IC50 for the entries that follow.
molecular target: Induced myeloid leukemia cell differentiation protein Mcl-1 (Homo sapiens, UniProt Q07820); type: functional
Sequence (Q07820 whole entry): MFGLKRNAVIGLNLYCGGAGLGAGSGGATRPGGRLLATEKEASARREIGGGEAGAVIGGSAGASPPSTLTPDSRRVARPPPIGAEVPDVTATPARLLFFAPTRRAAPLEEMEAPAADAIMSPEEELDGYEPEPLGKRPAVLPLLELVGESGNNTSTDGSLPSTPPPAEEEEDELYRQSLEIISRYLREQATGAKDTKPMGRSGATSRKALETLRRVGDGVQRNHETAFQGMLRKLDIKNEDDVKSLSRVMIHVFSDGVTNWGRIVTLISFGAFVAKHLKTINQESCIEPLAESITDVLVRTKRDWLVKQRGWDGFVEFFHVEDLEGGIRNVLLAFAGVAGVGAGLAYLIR
Calls of active or inactive are those of the source.

compound | tested-on | IC50
O=c1c2c3c(sc2[nH]c(=S)n1Cc1ccco1)CCC3 | Induced myeloid leukemia cell differentiation protein Mcl-1 (Homo sapiens, UniProt Q07820) | 2.1 µM (active)
COc1cc2c(-c3ccc(O)cc3)nc3c(c(C)nn3-c3ccccc3)c2cc1OC | Induced myeloid leukemia cell differentiation protein Mcl-1 (Homo sapiens, UniProt Q07820) | < 0.4 µM (active)
C/C(=N\NC(=O)c1cccc(N/N=C(\C)c2cc(O)ccc2O)c1)c1cc(O)ccc1O | Induced myeloid leukemia cell differentiation protein Mcl-1 (Homo sapiens, UniProt Q07820) | 3.43 µM (active)
Cc1ccc(C2C(/C=C3/SC(=S)NC3=O)=C(c3cccs3)Oc3ccccc32)cc1 (stereo not given) | Induced myeloid leukemia cell differentiation protein Mcl-1 (Homo sapiens, UniProt Q07820) | 3.63 µM (active)
CN(C)c1ccc(NC(=O)c2cccc(N3C(=O)C4C5C=CC(C5)C4C3=O)c2)cc1 (stereo not given) | Induced myeloid leukemia cell differentiation protein Mcl-1 (Homo sapiens, UniProt Q07820) | 1.89 µM (not active)
O=C(c1ccccc1)c1ccc2nc(-c3ccco3)c(-c3ccco3)nc2c1 | Induced myeloid leukemia cell differentiation protein Mcl-1 (Homo sapiens, UniProt Q07820) | 6.46 µM (active)
COc1cc(NS(=O)(=O)c2ccc(NC(=S)NC(=O)c3sc4cc(F)ccc4c3Cl)cc2)nc(OC)n1 | Induced myeloid leukemia cell differentiation protein Mcl-1 (Homo sapiens, UniProt Q07820) | 4.37 µM (not active)
Sc1nnc(-c2cc(-c3ccccc3)[nH]n2)n1/N=C/C(Br)=C/c1ccccc1 | Induced myeloid leukemia cell differentiation protein Mcl-1 (Homo sapiens, UniProt Q07820) | 4.97 µM (active)
O=C(O)COc1ccccc1C(Nc1cccnc1)c1cc(Cl)c2cccnc2c1O (stereo not given) | Induced myeloid leukemia cell differentiation protein Mcl-1 (Homo sapiens, UniProt Q07820) | 1.71 µM (active)

// moving on: another record for IC50
Problem: Return reported IC50. Input compound: `CCn1c(C)nc2cc(C(=O)N/N=C/c3ccc(O)c(O)c3O)ccc21`
Result: > 54 µM (active)

###

So I've got IC50 readings for Estrogen receptor (Homo sapiens), take a look.
Calls of active or inactive are those of the source.

line-notation | tested-on | readout-type | observed-result
Cc1[nH]c2ccc(-c3nnc(SCC(=O)c4ccccc4F)o3)cc2c1C | Estrogen receptor (Homo sapiens) | IC50 | 26 µM (active)
CC(=O)c1cccc(NC(=O)CN2C(=O)NC3(CCCCCCC3)C2=O)c1 | Estrogen receptor (Homo sapiens) | IC50 | 48.2 µM (not active)
COCCNC(=O)c1c(N)n(/N=C/c2cccs2)c2nc3ccccc3nc12 | Estrogen receptor (Homo sapiens) | IC50 | 11.2 µM (active)
CCn1c(SCC(=O)Nc2ccc3c(c2)c2ccccc2n3CC)nnc1-c1cnccn1 | Estrogen receptor (Homo sapiens) | IC50 | > 50 µM (not active)

Below are 3 compounds. Give each one its IC50.
1. COc1ccc(-c2nnc(-c3cc4c(ccc5ccccc54)oc3=O)o2)cc1
2. Cc1ccc(C(=O)ONc2ccc(N=NC(=O)c3ccccc3O)cc2)cc1
3. O=C(COC(=O)c1ccccc1Oc1ccccc1)NCc1ccco1

Result:
20 µM (active)
8.44 µM (active)
17.9 µM (active)

###

Provide the recorded IC50 for the entries that follow.
Molecular target: Carboxy-terminal domain RNA polymerase II polypeptide A small phosphatase 1 (Homo sapiens, UniProt Q9GZU7)
Sequence (Q9GZU7 whole entry): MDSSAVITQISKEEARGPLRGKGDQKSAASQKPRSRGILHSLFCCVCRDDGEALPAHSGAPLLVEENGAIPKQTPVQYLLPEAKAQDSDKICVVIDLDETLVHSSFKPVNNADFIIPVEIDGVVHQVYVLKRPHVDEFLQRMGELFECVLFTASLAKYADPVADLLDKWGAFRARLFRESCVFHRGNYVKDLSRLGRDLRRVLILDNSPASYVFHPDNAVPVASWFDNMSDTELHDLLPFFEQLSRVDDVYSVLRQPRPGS
Assay: CTDSP1 inhibitors, concentration-response, biochemical, absorbance readout, ultra-high-throughput screen actives (AID 540297)
Type: functional
Calls of active or inactive are those of the source.

Worked cases, IC50 given:
line-notation | IC50
CCN(CC(=O)Nc1c(F)cccc1F)C(=O)CCc1nc2sc3c(c2c(=O)[nH]1)CCCC3 | 4.4 µM (active)
COC(=O)c1ccc(C(=O)Nc2ccc3c(c2)C(=O)NC3=O)cc1 | 6.87 µM (active)
Cc1ccc(-n2[nH]c(C)c(/C=N/Nc3ccc([N+](=O)[O-])cc3[N+](=O)[O-])c2=O)cc1C | 3.32 µM (active)
Cn1nc(-c2ccc(C(=O)Nc3ccc(F)cc3)cc2)c2ccccc2c1=O | 10.4 µM (active)

// moving on: another record for IC50
Problem: Return reported IC50. Input molecule: `COc1ccccc1OCCn1c(SCC(=O)O)nc2ccccc21`
Result: 6.47 µM (active)

###

test system: P388/ADR; assay: cells; format: functional; conditions: Mus musculus
The source made the active and inactive calls.
Hi there, use one of these labels in your reply, thanks! active, inactive

Known results for compounds:
compound | discrete-label
ClCc1ccc2ccc3ccc(CCl)nc3c2n1 | active
COc1cc2c(ccc3c4cc(OC)c(OC)cc4c[n+](C)c23)cc1O | inactive
C=C1C(=O)OC2CC1CCC1(C)OC1CCC(C)=CCCC2(C)O (stereo not given) | active

Problem: Given CC1NC(=O)C(C)C(c2ccccc2)N(N=O)C1c1ccccc1 (stereo not given) , state the outcome it received in this test.
Result: active

Problem: Given `O=C1C=CC(=O)c2c(Cl)ccc(O)c21` , state the outcome it received in this test.
Result: active

###

biological target: Heat shock factor protein 1 (Mus musculus, UniProt P38532); experiment: enhancement of HSF1-driven luciferase signal – cell-based, NIH3T3, luminescence, dose retest, confirmation (AID 435004); type: functional;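 note: stress induced by proteasome inhibitor MG132 added 30 min after compound; luciferase reporter driven by HSF1 response element in NIH3T3 cells; actives raise luminescence as potentiators of the MG132 stress response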
Sequence (P38532 whole entry): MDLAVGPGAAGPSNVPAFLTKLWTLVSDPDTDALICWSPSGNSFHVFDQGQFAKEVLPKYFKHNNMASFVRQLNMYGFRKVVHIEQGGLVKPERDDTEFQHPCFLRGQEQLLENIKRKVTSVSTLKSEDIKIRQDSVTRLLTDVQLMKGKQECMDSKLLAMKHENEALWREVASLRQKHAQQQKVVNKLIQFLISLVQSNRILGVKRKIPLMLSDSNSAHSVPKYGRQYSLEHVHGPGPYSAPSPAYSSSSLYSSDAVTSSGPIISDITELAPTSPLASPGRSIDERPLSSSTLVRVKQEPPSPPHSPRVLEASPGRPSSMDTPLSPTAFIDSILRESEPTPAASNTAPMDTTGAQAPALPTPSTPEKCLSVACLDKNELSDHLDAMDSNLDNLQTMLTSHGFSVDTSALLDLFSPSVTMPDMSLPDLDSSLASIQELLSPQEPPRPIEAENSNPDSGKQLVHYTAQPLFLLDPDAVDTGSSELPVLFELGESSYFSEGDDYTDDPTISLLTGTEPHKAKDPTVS
The source made the active and inactive calls.
Hi there, use one of these labels in your reply, thanks! Yes for active, No for inactive

line-notation | tested-on | discrete-label
CCCCSc1nc(C)cc(SCC(=O)N/N=C/c2cccc(OC)c2O)n1 | Heat shock factor protein 1 (Mus musculus, UniProt P38532) | No
COc1ccc(/C=C\c2nc(=O)c3ccccc3o2)cc1 | Heat shock factor protein 1 (Mus musculus, UniProt P38532) | Yes
Cc1ccc(NC(=O)c2c(Cl)n(C)c3ccccc23)cc1 | Heat shock factor protein 1 (Mus musculus, UniProt P38532) | Yes

Let us examine a further case.
Problem: Given `CCOc1ccc(CN(C)C(=O)CNC(=O)c2ccc3ccccc3c2)cc1OC` , state the outcome it received in this test.
Result: No

###

target: Corticotropin-releasing factor receptor 2/Corticotropin-releasing factor-binding protein (Homo sapiens, UniProt P24387+Q13324); assay: Dose Response confirmation of uHTS hits for small molecule antagonists of the CRF-binding protein and CRF-R2 receptor complex.; format: functional; details: read-out: IC50_Mean
Sequence (Q13324 whole entry): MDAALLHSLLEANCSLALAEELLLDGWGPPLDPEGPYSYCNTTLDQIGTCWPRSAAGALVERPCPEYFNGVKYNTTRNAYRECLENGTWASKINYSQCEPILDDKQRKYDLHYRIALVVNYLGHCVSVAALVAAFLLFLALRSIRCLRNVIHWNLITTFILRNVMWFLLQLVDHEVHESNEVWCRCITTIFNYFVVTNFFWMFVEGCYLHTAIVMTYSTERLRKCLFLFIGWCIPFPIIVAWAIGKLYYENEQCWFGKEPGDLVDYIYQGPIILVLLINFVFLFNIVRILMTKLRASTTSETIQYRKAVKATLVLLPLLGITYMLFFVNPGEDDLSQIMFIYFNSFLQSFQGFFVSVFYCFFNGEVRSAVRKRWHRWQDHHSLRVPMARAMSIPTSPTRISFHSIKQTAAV
Sequence (P24387 whole entry): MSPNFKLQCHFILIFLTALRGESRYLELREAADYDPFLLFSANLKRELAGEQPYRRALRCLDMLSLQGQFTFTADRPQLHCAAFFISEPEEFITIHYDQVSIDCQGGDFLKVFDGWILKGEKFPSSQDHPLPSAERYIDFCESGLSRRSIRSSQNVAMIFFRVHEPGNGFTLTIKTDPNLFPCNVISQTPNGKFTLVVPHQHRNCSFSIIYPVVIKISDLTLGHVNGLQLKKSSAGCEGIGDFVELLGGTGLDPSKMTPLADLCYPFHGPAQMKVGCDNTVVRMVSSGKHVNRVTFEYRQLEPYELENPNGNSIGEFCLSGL
Activity calls are given as the source filed them.
readout-type: IC50

Worked cases, IC50 given:
molecule | IC50
COc1cc(O)c2c(c1)COC2=O | > 47.1 µM (inactive)
Cc1noc(C)c1COC(=O)Cc1ccc(Cl)c(Cl)c1 | 33.8 µM (active)
Cc1ccc2c(c1)C(C)CC(C)(C)N2C(=O)CN1CCN(C)CC1 (stereo not drawn) | > 47.1 µM (inactive)
COc1ccc(NC(=O)CCN2CCCCCC2)cc1 | > 47.1 µM (inactive)
O=C(CC1N=C2c3ccccc3N=C(SCc3ccccc3Cl)N2C1=O)NCc1ccco1 (stereo not drawn) | > 47.1 µM (inactive)

Below are 3 molecules. Give each one its IC50.
1. CC(=O)N(Cc1ccco1)c1nc(C(=O)Nc2ccc(Cl)cc2)c(C)s1
2. Cc1ccc(Nc2ccc(C(=O)O)cc2N)cc1
3. COCCCn1c(-c2ccc(OC)cc2)cc(C(=O)NC2CCCCCCC2)c1C

Result:
["> 47.1 µM (inactive)", "> 47.1 µM (inactive)", "3.95 µM (active)"]

###

Provide the recorded EC50 for the entries that follow.
biological target: Zinc finger protein mex-5 (Caenorhabditis elegans, UniProt Q9XUB2); assay: potency of MEX-5 RNA-binding blockers – biochemical, C. elegans, fluorescence polarization, dose response (AID 1960)
Sequence (Q9XUB2 whole entry): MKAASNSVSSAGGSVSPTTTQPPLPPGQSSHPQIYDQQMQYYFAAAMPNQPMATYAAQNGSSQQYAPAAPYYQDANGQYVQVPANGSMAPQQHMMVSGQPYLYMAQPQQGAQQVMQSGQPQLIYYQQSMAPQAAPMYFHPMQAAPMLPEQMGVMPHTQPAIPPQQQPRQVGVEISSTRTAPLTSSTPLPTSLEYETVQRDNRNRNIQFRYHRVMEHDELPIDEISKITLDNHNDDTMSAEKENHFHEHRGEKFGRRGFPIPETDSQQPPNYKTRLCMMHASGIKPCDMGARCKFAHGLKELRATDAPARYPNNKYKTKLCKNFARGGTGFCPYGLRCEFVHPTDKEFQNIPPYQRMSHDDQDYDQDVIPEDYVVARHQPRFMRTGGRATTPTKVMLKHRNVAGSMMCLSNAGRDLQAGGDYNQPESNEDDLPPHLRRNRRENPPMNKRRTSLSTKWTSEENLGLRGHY
Active and inactive are the calls of the source.

Worked cases, EC50 given:
compound | EC50
CC(=O)n1c(/C=N/c2ccccc2)c(O)c2ccccc21 | > 300 µM (not active)
COc1cc(C2C3CN(C)CC=C3C(C#N)=C(N)C2(C#N)C#N)ccc1OC(C)C (centres undefined) | 31.3 µM (active)
C=CCOc1ccc(C2OC34CCCCC3C(C#N)(C#N)C2(C#N)C(=N)O4)cc1 (centres undefined) | 9.41 µM (active)

// moving on: another record for EC50
Problem: Enter measured EC50, system Zinc finger protein mex-5 (Caenorhabditis elegans, UniProt Q9XUB2), for the compound shown: `Cc1cc(N/C=C2/C(=O)N(c3ccc4c(c3)OCO4)C(=O)c3ccccc32)ccn1`
Result: 188 µM (inconclusive)
